- Test system: CHO cells
- Protocol Description: Cytotoxicity screen in CHO cells
- Condition Info: Chinese hamster, CHO K1 cells
Readout Label: IC50 at 48 h (µM)
Answer with a number only, understood to be in µM.

CCOC(=O)N1CCN(c2ccc(NC(=O)c3ccc(OC)cc3)c(C(=O)O)c2)CC1; 34

Measured IC50 at 48 h of `COc1ccccc1C(=O)Nc1ccc(N2CCN(c3cccc(C)c3C)CC2)cc1C(=O)O` : 28

###

- System: CHO cells
- Protocol Description: Ant44 rescue assay in CHO cells (Assay 1)
- Assay type: cell-based, Chinese hamster
- Condition Info: Cricetulus griseus; Table 4B; CHO cells; read-out: Ant44 IC50
Items are presented alongside their recorded pIC50.
Convention used: pIC50 is expressed as -log10 of the molar concentration.

COc1ccccc1C(=O)Nc1ccc(N2CCC(c3ccccc3)CC2)cc1C(=O)O [SBI-0814418]; 4.72

// recorded pIC50 for COc1ccc(C(=O)Nc2ccc(N3CCN(c4ccccc4OC)CC3)cc2C(=O)O)cc1 [SBI-0800678] : 5.05
